# ASSAY_REMARKS: Maximum concentration was measured after peroral administration of 5.0 mg/kg of drug in male Dawley rats
# Assay type: ADME, organism-based
# Design: dose 5 mg/kg, route oral
# MEASUREMENT_CONTEXT: Sprague-Dawley, rat, in vivo, po
Reported values of Cmax for individual entries
MEASUREMENT_LABEL: Cmax (µM)

INSERT INTO results (compound_structure, measurement_label, measured) VALUES
  ('N#Cc1ccc(S(=O)(=O)Nc2cccc([C@@H](c3c(O)oc4c(c3=O)CCCCCC4)C3CC3)c2)cc1', 'Cmax', 19),
  ('N#Cc1ccc(S(=O)(=O)Nc2cccc([C@H](c3c(O)oc4c(c3=O)CCCCCC4)C3CC3)c2)cc1', 'Cmax', 13),
  ('O=c1c2c(oc(O)c1[C@H](c1cccc(NS(=O)(=O)c3cccc4cccnc34)c1)C1CC1)CCCCCC2', 'Cmax', 6.2),
  ('Cn1cnc(S(=O)(=O)Nc2cccc([C@@H](c3c(O)c4c(oc3=O)CCCCCC4)C3CC3)c2)c1', 'Cmax', 0.64);

====

# System: Human immunodeficiency virus 1
# ASSAY_REMARKS: Antiviral activity in HIV-1 infected H9 cells
# Type: functional
# MEASUREMENT_CONTEXT: Human immunodeficiency virus 1, H9; read-out: ED50 (the source's name)
pEC50: −log10 of the molar value.
MEASUREMENT_LABEL: pEC50

INSERT INTO results (compound, measured) VALUES
  ('N#Cc1ccc(S(=O)(=O)Nc2cccc([C@H](c3c(O)oc4c(c3=O)CCCCCC4)C3CC3)c2)cc1', 5.08),
  ('CC(C)(C)OC(=O)NCCC(=O)Nc1cccc(C(c2c(O)c3c(oc2=O)CCCCCC3)C2CC2)c1 (centres undefined)', 4.48),
  ('O=c1c2c(oc(O)c1[C@@H](c1cccc(NS(=O)(=O)c3cccc4cccnc34)c1)C1CC1)CCCCCC2', 5.14),
  ('COc1ccc(S(=O)(=O)Nc2cccc(C(c3c(O)c4c(oc3=O)CCCCCC4)C3CC3)c2)cc1OC (centres undefined)', 5.39);

====

# ASSAY_REMARKS: Oral bioavailability in rat (Sprague-Dawley) (male) (dose 5.2 mg/kg p.o.)
# Assay type: ADME, organism-based
# MEASUREMENT_CONTEXT: in vivo
Reported values of bioavailability for individual entries
MEASUREMENT_LABEL: bioavailability (%)

INSERT INTO assay_data (compound, measurement_label, unit_descriptor, measured) VALUES
  ('O=c1c2c(oc(O)c1[C@@H](c1cccc(NS(=O)(=O)c3ccc(F)cc3)c1)C1CC1)CCCCCC2', 'bioavailability', '%', 53),
  ('O=c1c2c(oc(O)c1C(c1cccc(NS(=O)(=O)c3ccc(F)cc3)c1)C1CC1)CCCCCC2 (configuration not stated)', 'bioavailability', '%', 50);

====

Reported values of pEC50 for individual entries
# Tested on: Human immunodeficiency virus 1
# ASSAY_REMARKS: Antiviral activity in HIV-1 infected H9 cells
# Type: functional
# MEASUREMENT_CONTEXT: Human immunodeficiency virus 1, H9; read-out: ED50 (the source's name)
pEC50: −log10 of the molar value.
MEASUREMENT_LABEL: pEC50

INSERT INTO results (compound, measurement_label, censoring_qualifier, measured) VALUES
  ('O=c1c2c(oc(O)c1C(c1cccc(NS(=O)(=O)c3cccs3)c1)C1CC1)CCCCCC2 (stereo not drawn)', 'pEC50', '<', 5.00),
  ('O=c1c2c(oc(O)c1C(c1cccc(NS(=O)(=O)c3cscn3)c1)C1CC1)CCCCCC2 (stereo not drawn)', 'pEC50', '<', 5.52),
  ('Cc1ccc(S(=O)(=O)Nc2cccc(C(c3c(O)c4c(oc3=O)CCCCCC4)C3CC3)c2)cc1 (stereo not drawn)', 'pEC50', '=', 5.44),
  ('N#Cc1cccc(S(=O)(=O)Nc2cccc(C(c3c(O)oc4c(c3=O)CCCCCC4)C3CC3)c2)c1 (stereo not drawn)', 'pEC50', '<', 5.52),
  ('CC(C)(C)c1ccc(S(=O)(=O)Nc2cccc(C(c3c(O)c4c(oc3=O)CCCCCC4)C3CC3)c2)cc1 (stereo not drawn)', 'pEC50', '<', 5.00),
  ('O=c1c2c(oc(O)c1C(c1cccc(NS(=O)(=O)c3ccc([N+](=O)[O-])cc3)c1)C1CC1)CCCCCC2 (stereo not drawn)', 'pEC50', '=', 5.51),
  ('CCCC(c1cccc(NS(=O)(=O)c2cn(C)cn2)c1)c1c(O)c2c(oc1=O)CCCCCC2 (stereo not drawn)', 'pEC50', '=', 5.60),
  ('COC(=O)c1cccc(S(=O)(=O)Nc2cccc(C(c3c(O)c4c(oc3=O)CCCCCC4)C3CC3)c2)c1 (stereo not drawn)', 'pEC50', '=', 5.59);
